- System: ATP;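 further: ATP exposure 15 min at 22 °C before imaging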
- assay.notes: switch fluorescence ratio, 500 uM ATP over buffer (Cy3 cluster intensity, sum of 5 cycles each) (fold (ratio)); higher = stronger signal-on switching upon ATP binding; sequences stand for … in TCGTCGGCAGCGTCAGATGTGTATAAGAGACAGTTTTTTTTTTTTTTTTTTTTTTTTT…TC
- condition.details: aptamer strand: ATP DNA aptamer (quencher-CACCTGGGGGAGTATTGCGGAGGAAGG + anchor), 100 nM annealed; ATP concentration: 500 uM
reported.property: switch fluorescence ratio
One number for each entry.

Batch of 8 sequences: report switch fluorescence ratio for each.
1. CGAGGATAAC
2. TGAGCAGAGG
3. TCGTGCTGGG
4. CTATGATTTA
5. ACTACGTTAC
6. CGTGATAAAG
7. ATTGAGATCG
8. TTACTATATG

# output
1.03
1.04
1
0.975
2.88
0.991
1.01
1.03

----------
- Test system: ATP;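 further: ATP exposure 15 min at 22 °C before imaging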
- assay.notes: switch fluorescence ratio, 500 uM ATP over buffer (Cy3 cluster intensity, sum of 5 cycles each) (fold (ratio)); higher = stronger signal-on switching upon ATP binding; sequences stand for … in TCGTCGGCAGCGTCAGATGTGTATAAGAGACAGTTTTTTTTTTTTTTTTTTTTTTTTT…TC
- condition.details: aptamer strand: ATP DNA aptamer (quencher-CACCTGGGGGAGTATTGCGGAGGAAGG + anchor), 100 nM annealed; ATP concentration: 500 uM
Kindly supply the reported switch fluorescence ratio values for the records listed here.
Give bare numbers.

Worked set:
{"biopolymer.sequence": "TGGGGTAGGA", "reported.property": "switch fluorescence ratio", "numeric.value": 0.988}
{"biopolymer.sequence": "ATTAAGTTTG", "reported.property": "switch fluorescence ratio", "numeric.value": 1}
{"biopolymer.sequence": "TCAGGCGTGA", "reported.property": "switch fluorescence ratio", "numeric.value": 0.987}

Batch lookup, switch fluorescence ratio per entry.
1. AAGTAAGTTG
2. GAATAGTTTT

# output
1: 0.981; 2: 1.01

For each of the items listed, what is its switch fluorescence ratio?
1. TCCGGGTTGG
2. CGGCATGTCT
3. GGGGAGAGAA
4. TATTGACGGA

# output
1. 1.03
2. 0.997
3. 0.986
4. 1.01

Give measured switch fluorescence ratio for every item shown.
1. TACAAGGACG
2. GTATTATTTA
3. TTTTGGCCAA
4. TGGTCCTATG
5. TGGGTAGTGC
6. ATTGAAGCGG

# output
[1.03, 1, 1.01, 1.01, 0.997, 1.01]

Batch: switch fluorescence ratio for all items listed.
1. GATATCACTG
2. TGGTAGGGGC
3. GGATGGGTTT

# output
1. 1.02
2. 1.02
3. 1

Please state switch fluorescence ratio for every sequence in the list that follows.
1. AGAGTGCTAC
2. AAGCATAGTC
3. GTCAAAGATT
4. TAGGTTTAGG
5. TTATTGAAAA
6. TCAACGGTAT

# output
[1.04, 1.06, 0.98, 0.987, 1, 1.06]

Dear colleague, could you send me switch fluorescence ratio for each of the items below? Thanks.
1. AACAAGCCCA
2. TTTGTCTATA
3. TAACCAGTGG
4. TGGGATACAG

# output
1. 1.01
2. 1
3. 1.07
4. 0.982

I'm hoping you can list switch fluorescence ratio for every sequence here, please.
1. CGGGACGTTT
2. ATTTATGGAT

# output
1.01
1

# map each sequence to its switch fluorescence ratio
1. ATTTGAGGGA
2. GTGATTGCTG
3. GTTGAGGTTC
4. AGAATGTTGC
5. CGGGGGCTTT

# output
1. 1.13
2. 0.988
3. 1.03
4. 0.948
5. 0.99

----------
- System: ATP;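 further: ATP exposure 15 min at 22 °C before imaging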
- assay.notes: switch fluorescence ratio, 500 uM ATP over buffer (Cy3 cluster intensity, sum of 5 cycles each) (fold (ratio)); higher = stronger signal-on switching upon ATP binding; sequences stand for … in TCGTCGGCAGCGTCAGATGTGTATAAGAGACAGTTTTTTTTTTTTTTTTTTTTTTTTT…TC
- condition.details: aptamer strand: ATP DNA aptamer (quencher-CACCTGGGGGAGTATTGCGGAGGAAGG + anchor), 100 nM annealed; ATP concentration: 500 uM
Kindly state switch fluorescence ratio for each of the entries shown.
Answers are plain numbers.

{"biopolymer.sequence": "AACGAAGTCG", "switch fluorescence ratio": 1}
{"biopolymer.sequence": "ACCTTTTTTG", "switch fluorescence ratio": 0.992}
{"biopolymer.sequence": "AAATCGAGCT", "switch fluorescence ratio": 1.04}
{"biopolymer.sequence": "CTAAGTAGCC", "switch fluorescence ratio": 1.01}

# per-item lookup of switch fluorescence ratio; items listed below
1. TTTGAGTCAG
2. ATTGAACGTT
3. AAGTCATGGG
4. CCCAGTTTGG
5. TGATGGTATA
6. GTGTTGCCGA

# output
0.994
0.979
1.01
1.01
1.01
1

----------
Give measured switch fluorescence ratio for each item. Keep answers brief.
- Test system: ATP;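 further: ATP exposure 15 min at 22 °C before imaging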
- assay.notes: switch fluorescence ratio, 500 uM ATP over buffer (Cy3 cluster intensity, sum of 5 cycles each) (fold (ratio)); higher = stronger signal-on switching upon ATP binding; sequences stand for … in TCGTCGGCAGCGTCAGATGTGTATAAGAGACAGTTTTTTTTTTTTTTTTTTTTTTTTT…TC
- condition.details: aptamer strand: ATP DNA aptamer (quencher-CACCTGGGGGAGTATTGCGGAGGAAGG + anchor), 100 nM annealed; ATP concentration: 500 uM
Give bare numbers.

Reference set, count: 8
{"biopolymer.sequence": "CGAAGGGGTG", "reported.property": "switch fluorescence ratio", "numeric.value": 0.975}
{"biopolymer.sequence": "GGGCATGTCT", "reported.property": "switch fluorescence ratio", "numeric.value": 1.03}
{"biopolymer.sequence": "GCCTAATGTT", "reported.property": "switch fluorescence ratio", "numeric.value": 0.957}
{"biopolymer.sequence": "CTGGGATGGG", "reported.property": "switch fluorescence ratio", "numeric.value": 1.06}
{"biopolymer.sequence": "TTGGTGGATC", "reported.property": "switch fluorescence ratio", "numeric.value": 1.03}
{"biopolymer.sequence": "TTCGCAGTCA", "reported.property": "switch fluorescence ratio", "numeric.value": 1.03}
{"biopolymer.sequence": "GGGGGCGGCT", "reported.property": "switch fluorescence ratio", "numeric.value": 1.03}
{"biopolymer.sequence": "GCGAATCGGT", "reported.property": "switch fluorescence ratio", "numeric.value": 1.01}

Hi! Can you tell me switch fluorescence ratio for each of these sequences?
1. GATGTCAACG
2. GGGGGTAAGG
3. CGGGTATTCT
4. CAGTGTCGGG
5. GGGAATTCGA
6. TGTTATATAT

# output
[0.973, 0.987, 0.974, 0.998, 1, 0.993]

Batch of 6 sequences: report switch fluorescence ratio for each.
1. GTTGATGGGG
2. CTGGTAGGGT
3. ACATGCTGTA
4. GAAGTTGGTG
5. CATGATAGTT
6. TGATAGATGC

# output
[0.984, 1.02, 0.995, 0.987, 0.997, 1.03]

Hey, quick one: what's switch fluorescence ratio for each of these?
1. GATAGGTTTC
2. TATGATATCC
3. CATGTGATTA

# output
1. 0.977
2. 0.978
3. 1.01

----------
I'd be grateful if you could share measured switch fluorescence ratio for these entries.
- System: ATP;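 further: ATP exposure 15 min at 22 °C before imaging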
- assay.notes: switch fluorescence ratio, 500 uM ATP over buffer (Cy3 cluster intensity, sum of 5 cycles each) (fold (ratio)); higher = stronger signal-on switching upon ATP binding; sequences stand for … in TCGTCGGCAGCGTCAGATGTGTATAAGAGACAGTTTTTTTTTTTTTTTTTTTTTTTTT…TC
- condition.details: aptamer strand: ATP DNA aptamer (quencher-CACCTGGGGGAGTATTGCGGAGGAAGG + anchor), 100 nM annealed; ATP concentration: 500 uM
Give bare numbers.

{"biopolymer.sequence": "AATTTTTGAG", "target.or.test.system": "ATP", "switch fluorescence ratio": 0.988}

Kindly give each listed record's switch fluorescence ratio.
1. ACGGTTGCGC
2. GATAATGCGG
3. TTTTTCGTCT
4. TTGATGGGGA
5. CTTGCTGCTG
6. TAGACTGGTT
7. CGAGATTTGT

# output
1: 1.01; 2: 1.01; 3: 1.02; 4: 0.982; 5: 0.972; 6: 0.992; 7: 1.01

// batch mode: one switch fluorescence ratio value per listed entry
1. TGAAATATTT
2. ATACCTTCGT
3. CCCCTCGAGG

# output
[1.21, 1.69, 0.966]

Each sequence below has a reported value. Please supply its switch fluorescence ratio.
1. TATCCTTTCA
2. TGGTTGGCTC
3. AGGTTCAGGC

# output
1.04
0.985
0.982

Respectfully, I request switch fluorescence ratio for each entry included below.
1. CGGTTTGACT
2. CGTATGAAAA
3. CTTGGGTAAG
4. GCTCAGGGGA
5. GTTTATGTAG
6. GTGATGGCAG
7. TGCCGCAGAG

# output
[0.956, 1, 0.988, 1.21, 1.01, 0.985, 1.6]
